Give measured Inhibition of Activity for each item. Keep answers brief.
System: pigeon trypsin
METHOD_NOTES: TAME assay: inhibition of pigeon intestinal trypsin activity
Format: biochemical
COND: compound 60 µg/ml; TAME substrate; percentage inhibition of control activity ± standard deviation (n = 3); 5 min
Give bare numbers, in percentage.

// known answers, use as guide
O=C(O)C=Cc1ccc(O)c(O)c1 [3,4-Dihydroxycinnamic acid] ... 22
COc1ccc(C=CC(=O)O)cc1OC [3,4-Dimethoxycinnamic acid] ... 16

Batch: Inhibition of Activity for all items listed.
1. O=C(O)C=Cc1ccccc1 [Cinnamic Acid, cinnamic acid]
2. CNc1ccccc1C(=O)OC [Dimethylanthranilate, Dimethyl anthranilate, reference compound]
3. COc1cc(C=CC(=O)O)cc(OC)c1 [3,5-Dimethoxycinnamic acid]
4. COc1cc(C=CC(=O)O)ccc1O [4-Hydroxy-3-methoxycinnamic acid]

### Response
[93, 9, 14, 16]

* * *

Tested on: bullfinch trypsin
METHOD_NOTES: BAEE assay: inhibition of bullfinch intestinal trypsin activity
Format: biochemical
COND: compound 1 x 10⁻⁵M; BAEE substrate; percentage inhibition of control activity ± standard deviation (n = 3); 7 min, 10 µM
Give measured Inhibition of Activity Trypsin for each item. Keep answers brief.
One number for each entry, in percentage.

// known answers, use as guide
COc1cc(C=CC(=O)O)cc(OC)c1OC [3,4,5-Trimethoxycinnamic acid] ... 36
O=C(O)C=Cc1ccccc1 [Cinnamic Acid, cinnamic acid] ... 85
O=C(O)C=Cc1ccc(O)c(O)c1 [3,4-Dihydroxycinnamic acid] ... 43
NC(=O)C=Cc1ccccc1 [Cinnamamide, cinnamamide] ... 64

### Prompt Consider the compound COc1cc(C=CC(=O)O)cc(OC)c1O [4-Hydroxy-3,5-dimethoxy-cinnamic acid, 4-Hydroxy-3,5-dimethoxycinnamic acid] and give its measured Inhibition of Activity Trypsin.
### Response 22

* * *

Give measured Inhibition of Activity for each item. Keep answers brief.
Test system: pigeon trypsin
METHOD_NOTES: TAME assay: inhibition of pigeon intestinal trypsin activity
Type: biochemical
COND: compound 60 µg/ml; TAME substrate; percentage inhibition of control activity ± standard deviation (n = 3); 5 min
Give bare numbers, in percentage.

// known answers, use as guide
O=C(C=Cc1ccc(O)c(O)c1)OC1CC(O)(C(=O)O)CC(O)C1O (stereo not shown) [3-(3',4'-Dihydroxycinnamoyl)-quinic acid] ... 3
COc1cc(C=CC(=O)O)cc(OC)c1O [4-Hydroxy-3,5-dimethoxy-cinnamic acid, 4-Hydroxy-3,5-dimethoxycinnamic acid] ... 16
NC(=O)C=Cc1ccccc1 [Cinnamamide, cinnamamide] ... 0

### Prompt Consider the compound COc1cc(C=CC(=O)O)cc(OC)c1OC and give its measured Inhibition of Activity.
### Response 0

* * *

System: feral pigeons
METHOD_NOTES: Three day no-choice feeding test with feral pigeons
Type: in vivo
COND: 0.5% w/w compound/pellet, after the test compared with before, ± standard deviation
The threshold is -1 grams. Values of Mean weight difference beneath it are tagged yes; values meeting or exceeding it are tagged no.

Field: example entries. Status: answers known.
O=C(O)C=Cc1ccccc1 ... no
CNc1ccccc1C(=O)OC [Dimethylanthranilate, Dimethyl anthranilate, reference compound] ... yes
CC(=O)OC[C@H]1O[C@@](COC(C)=O)(O[C@H]2O[C@H](COC(C)=O)[C@@H](OC(C)=O)[C@H](OC(C)=O)[C@H]2OC(C)=O)[C@@H](OC(C)=O)[C@@H]1OC(C)=O [Sucrose octaacetate, reference compound] ... no
COc1cc(C=CC(=O)O)cc(OC)c1 ... yes

### Prompt Does the reported Mean weight difference of the following compound sit strictly below -1 grams? COc1ccc(C=CC(=O)O)cc1OC
### Response yes
